Test system: FXIII (Homo sapiens (Human))
Sequence (P00488 39-732): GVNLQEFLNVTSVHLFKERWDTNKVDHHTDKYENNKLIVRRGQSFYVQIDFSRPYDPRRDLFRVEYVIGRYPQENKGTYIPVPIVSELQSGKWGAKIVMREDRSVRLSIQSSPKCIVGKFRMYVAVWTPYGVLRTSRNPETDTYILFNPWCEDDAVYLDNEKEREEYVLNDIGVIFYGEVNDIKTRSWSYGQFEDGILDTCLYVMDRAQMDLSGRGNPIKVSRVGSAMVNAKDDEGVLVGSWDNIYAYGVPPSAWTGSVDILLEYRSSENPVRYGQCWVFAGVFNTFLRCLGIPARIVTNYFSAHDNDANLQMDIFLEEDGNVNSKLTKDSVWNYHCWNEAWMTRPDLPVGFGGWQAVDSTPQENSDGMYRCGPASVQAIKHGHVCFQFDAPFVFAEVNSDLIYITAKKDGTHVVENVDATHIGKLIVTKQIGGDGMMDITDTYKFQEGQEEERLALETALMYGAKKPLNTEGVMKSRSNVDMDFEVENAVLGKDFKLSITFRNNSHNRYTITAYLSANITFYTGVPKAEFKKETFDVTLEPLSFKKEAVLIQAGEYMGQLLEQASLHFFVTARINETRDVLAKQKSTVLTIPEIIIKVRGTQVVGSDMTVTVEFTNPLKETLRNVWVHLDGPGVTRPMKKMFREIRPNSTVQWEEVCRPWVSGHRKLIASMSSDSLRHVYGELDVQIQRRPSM
Method summary: Inhibitory activity against FXIII (isopeptidase assay), Tables 3 and 4
Type: biochemical
Condition context: Table 4; read-out: FXIII IC50
*1 amine or outer side, *2 acyl side, *3 side chain or, on linkers, in order; H or OH if unused. Where a SMILES comes first, the peptide text is derived from it. [ ]: non-standard residue; d: D form. ξ: configuration not given here. X1 = COC(=O)/C=C/CC[C@H](N[*:1])C(=O)[*:2]; Morpholine(3S-CO) = O=C(O)[C@@H]1COCCN1; Pro(4-oxo) = O=C1CN[C@H](C(=O)O)C1; Ala(cPr) = N[C@@H](CC1CC1)C(=O)O; Ile(3ξ) = CCC(C)[C@H](N)C(=O)O; Thr(3ξ) = CC(O)[C@H](N)C(=O)O; Nle = CCCC[C@H](N)C(=O)O
Result type: pIC50
# pIC50: negative log10 of molar concentration; output just the value

INSERT INTO measurements (compound, value_reported) VALUES
  ('COC(=O)/C=C/CC[C@H](NC(=O)[C@@H]1CC(=O)CN1)C(=O)N[C@@H](CC1CC1)C(=O)N1CCOC[C@H]1C(=O)N[C@@H](CC(C)C)C(=O)N1CCC[C@H]1C(=O)O [Compound 44] (H-[Pro(4-oxo)][X1][Ala(cPr)][Morpholine(3S-CO)]LP-OH)', 6.85),
  ('CCCC[C@H](NC(=O)[C@H](CC/C=C/C(=O)OC)NC(=O)[C@@H]1CC(=O)CN1)C(=O)N[C@H](C(=O)N[C@@H](CC(C)C)C(=O)N1CCC[C@H]1C(=O)N[C@@H](Cc1c[nH]c2ccccc12)C(=O)N1CCC[C@H]1C(=O)O)C(C)CC (stereo partly shown) [Ref. 23, reference compound] (H-[Pro(4-oxo)][X1][Nle][Ile(3ξ)]LPWP-OH)', 7.25);

With those in mind, consider the next compound.
Looking up COC(=O)/C=C/CC[C@H](NC(=O)[C@H](CC(N)=O)NC(C)=O)C(=O)N[C@@H](CCC(=O)O)C(=O)N[C@@H](CCC(N)=O)C(=O)N[C@H](C(=O)N[C@@H](CO)C(=O)N1CCC[C@H]1C(=O)N[C@@H](CC(C)C)C(=O)N[C@H](C(=O)N[C@@H](CC(C)C)C(=O)N[C@@H](CC(C)C)C(=O)O)C(C)O)C(C)C (stereo partly shown) [Ref. 18, reference compound] (Ac-N[X1]EQVSPL[Thr(3ξ)]LL-OH) , I see its pIC50 listed as 6.00

---

In this section, each of the compounds is paired with its reported IC50.
Test system: FXIII (Homo sapiens (Human))
Method summary: Inhibitory activity against FXIII (isopeptidase assay), Tables 3 and 4;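 note: FXIIIa activity read with a peptide substrate derived from the α2-antiplasmin N-terminal dodecapeptide, FXIII activated beforehand at room temperature, inhibitor-free wells with DMSO buffer as control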
Type: biochemical
Condition context: isopeptidase assay, Table 3; read-out: IC50 [nM] FXIII
*1 amine or outer side, *2 acyl side, *3 side chain or, on linkers, in order; H or OH if unused. Where a SMILES comes first, the peptide text is derived from it. [ ]: non-standard residue; d: D form. The star is where a group is joined. Isonicotinoyl(3-COOH) = O=C(O)c1cnccc1C(=O)*; X1 = COC(=O)/C=C/CC[C@H](N[*:1])C(=O)[*:2]; X5 = CNC(=O)/C=C/CC[C@H](N[*:1])C(=O)[*:2]; Pro(4-oxo) = O=C1CN[C@H](C(=O)O)C1; Chg = N[C@H](C(=O)O)C1CCCCC1; Tle = CC(C)(C)[C@H](N)C(=O)O
Reply numerically in nM, unit not repeated.

INSERT INTO results (compound, endpoint_unit, value_reported) VALUES
  ('CNC(=O)/C=C/CC[C@H](NC(=O)c1ccncc1C(=O)O)C(=O)N[C@H](C(=O)N1CC(=O)C[C@H]1C(=O)N[C@H](C(=O)N[C@H](C(N)=O)C1CCCCC1)C1CCCCC1)C(C)(C)C [17a/b] ({Isonicotinoyl(3-COOH)}-[X5][Tle][Pro(4-oxo)][Chg][Chg]-NH2)', 'nM', 41);

Switching to the query record.
Form: compound = COC(=O)/C=C/CC[C@H](NC(=O)c1ccncc1C(=O)O)C(=O)N[C@@H](CCSC)C(=O)N1CC(=O)C[C@H]1C(=O)N[C@H](C(=O)N[C@H](C(N)=O)C1CCCCC1)C1CCCCC1 [37a/b] ({Isonicotinoyl(3-COOH)}-[X1]M[Pro(4-oxo)][Chg][Chg]-NH2) ; IC50 = 69

---

Test system: TG2 (Homo sapiens (Human), UniProt P21980)
Sequence (P21980 whole entry): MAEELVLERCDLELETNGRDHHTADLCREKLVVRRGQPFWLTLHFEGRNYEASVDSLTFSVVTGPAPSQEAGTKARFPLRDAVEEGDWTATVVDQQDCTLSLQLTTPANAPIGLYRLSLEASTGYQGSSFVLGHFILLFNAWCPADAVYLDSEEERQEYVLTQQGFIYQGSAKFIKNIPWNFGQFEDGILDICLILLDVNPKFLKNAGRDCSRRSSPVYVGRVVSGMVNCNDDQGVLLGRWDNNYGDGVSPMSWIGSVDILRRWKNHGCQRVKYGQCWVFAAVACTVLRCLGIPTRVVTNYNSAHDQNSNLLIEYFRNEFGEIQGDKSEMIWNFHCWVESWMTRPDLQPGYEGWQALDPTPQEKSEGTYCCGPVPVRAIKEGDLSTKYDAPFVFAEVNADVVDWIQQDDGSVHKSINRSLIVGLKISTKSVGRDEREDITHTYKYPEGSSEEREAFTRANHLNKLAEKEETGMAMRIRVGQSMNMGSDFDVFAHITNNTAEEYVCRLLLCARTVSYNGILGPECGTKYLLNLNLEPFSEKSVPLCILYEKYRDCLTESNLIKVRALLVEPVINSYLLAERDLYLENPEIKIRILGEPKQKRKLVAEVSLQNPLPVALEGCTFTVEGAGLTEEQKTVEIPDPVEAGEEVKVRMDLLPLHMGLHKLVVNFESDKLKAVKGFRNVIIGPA
Method summary: Inhibitory activity against TG2 (isopeptidase assay), Tables 3 and 4
Format: biochemical
Condition context: isopeptidase assay, Table 3; read-out: IC50 [nM] TG2
*1 amine or outer side, *2 acyl side, *3 side chain or, on linkers, in order; H or OH if unused. Where a SMILES comes first, the peptide text is derived from it. [ ]: non-standard residue; d: D form. The star is where a group is joined. Isonicotinoyl(3-COOH) = O=C(O)c1cnccc1C(=O)*; X1 = COC(=O)/C=C/CC[C@H](N[*:1])C(=O)[*:2]; X3 = O=C(c1cnc(O)c([N+](=O)[O-])c1)*; Pro(4-oxo) = O=C1CN[C@H](C(=O)O)C1; Chg = N[C@H](C(=O)O)C1CCCCC1; Tle = CC(C)(C)[C@H](N)C(=O)O
IC50 for assorted compounds
Write it as a number; the unit nM goes unstated.

Memo: COC(=O)/C=C/CC[C@H](NC(=O)c1cnc(O)c([N+](=O)[O-])c1)C(=O)N[C@H](C(=O)N1CC(=O)C[C@H]1C(=O)N[C@H](C(=O)N[C@H](C(N)=O)C1CCCCC1)C1CCCCC1)C(C)(C)C [Compound 6] (X3-[X1][Tle][Pro(4-oxo)][Chg][Chg]-NH2) , reported IC50: 12

COC(=O)/C=C/CC[C@H](NC(=O)c1ccncc1C(=O)O)C(=O)N[C@H](C(=O)N1CC(=O)C[C@H]1C(=O)N[C@H](C(=O)N[C@H](C(=O)OC)C1CCCCC1)C1CCCCC1)C(C)(C)C [35a/b] ({Isonicotinoyl(3-COOH)}-[X1][Tle][Pro(4-oxo)][Chg][Chg]-OMe) yielded IC50 of 198

---

Test system: TG2 (Homo sapiens (Human), UniProt P21980)
Method summary: Inhibitory activity against TG2 (isopeptidase assay), Tables 3 and 4
Assay type: biochemical
Condition context: isopeptidase assay, Table 3; read-out: IC50 [nM] TG2
*1 amine or outer side, *2 acyl side, *3 side chain or, on linkers, in order; H or OH if unused. Where a SMILES comes first, the peptide text is derived from it. [ ]: non-standard residue; d: D form. The star is where a group is joined. Benzoyl(3-COOH,5-NO2) = O=C(O)c1cc(C(=O)*)cc([N+](=O)[O-])c1; Pro(3R,4S-CMe2) = CC1(C)[C@@H]2[C@@H](C(=O)O)NC[C@@H]21; Benzoyl(2-COOH-4,5-Cl2) = O=C(O)c1cc(Cl)c(Cl)cc1C(=O)*; Nle(5E-ene,6-CO2Et) = CCOC(=O)/C=C/CC[C@H](N)C(=O)O; Isonicotinoyl(3-COOH) = O=C(O)c1cnccc1C(=O)*; X1 = COC(=O)/C=C/CC[C@H](N[*:1])C(=O)[*:2]; X5 = CNC(=O)/C=C/CC[C@H](N[*:1])C(=O)[*:2]; X8 = NC(=O)/C=C/CC[C@H](N[*:1])C(=O)[*:2]; Pro(4-oxo) = O=C1CN[C@H](C(=O)O)C1; Chg = N[C@H](C(=O)O)C1CCCCC1; Tle = CC(C)(C)[C@H](N)C(=O)O; X4 = O=C(O)c1cncc(C(=O)*)c1; Pip = O=C(O)[C@@H]1CCCCN1; Cbz = O=C(OCc1ccccc1)*
Result type: IC50 (nM)

INSERT INTO measurements (compound, test_system, result_type, endpoint_unit, value_reported) VALUES
  ('CNC(=O)/C=C/CC[C@H](NC(=O)c1ccncc1C(=O)O)C(=O)N[C@H](C(=O)N1CC(=O)C[C@H]1C(=O)N[C@H](C(=O)N[C@H](C(N)=O)C1CCCCC1)C1CCCCC1)C(C)(C)C [17a/b] ({Isonicotinoyl(3-COOH)}-[X5][Tle][Pro(4-oxo)][Chg][Chg]-NH2)', 'TG2 (Homo sapiens (Human), UniProt P21980)', 'IC50', 'nM', 295),
  ('COC(=O)/C=C/CC[C@H](NC(=O)c1cc(Cl)c(Cl)cc1C(=O)O)C(=O)N[C@H](C(=O)N1C[C@H]2[C@@H]([C@H]1C(=O)N[C@H](C(=O)N[C@H](C(N)=O)C1CCCCC1)C1CCCCC1)C2(C)C)C(C)(C)C [Compound 29] ({Benzoyl(2-COOH-4,5-Cl2)}-[X1][Tle][Pro(3R,4S-CMe2)][Chg][Chg]-NH2)', 'TG2 (Homo sapiens (Human), UniProt P21980)', 'IC50', 'nM', 32),
  ('COC(=O)/C=C/CC[C@H](NC(=O)c1cncc(C(=O)O)c1)C(=O)N[C@H](C(=O)N1CCC[C@H]1C(=O)N[C@H](C(=O)N[C@H](C(N)=O)C1CCCCC1)C1CCCCC1)C(C)(C)C [Compound 27] (X4-[X1][Tle]P[Chg][Chg]-NH2)', 'TG2 (Homo sapiens (Human), UniProt P21980)', 'IC50', 'nM', 64),
  ('CCOC(=O)/C=C/CC[C@H](NC(=O)OCc1ccccc1)C(=O)N[C@H](C(=O)N1CCCC[C@H]1C(=O)N[C@@H](CC(C)C)C(=O)OC)C(C)C [Ref. 6, reference compound] (Cbz-[Nle(5E-ene,6-CO2Et)]V[Pip]L-OMe)', 'TG2 (Homo sapiens (Human), UniProt P21980)', 'IC50', 'nM', 48),
  ('CC(C)(C)[C@H](NC(=O)[C@H](CC/C=C/C(N)=O)NC(=O)c1ccncc1C(=O)O)C(=O)N1CC(=O)C[C@H]1C(=O)N[C@H](C(=O)N[C@H](C(N)=O)C1CCCCC1)C1CCCCC1 [15a/b] ({Isonicotinoyl(3-COOH)}-[X8][Tle][Pro(4-oxo)][Chg][Chg]-NH2)', 'TG2 (Homo sapiens (Human), UniProt P21980)', 'IC50', 'nM', 483),
  ('CNC(=O)[C@@H](NC(=O)[C@@H](NC(=O)[C@@H]1CC(=O)CN1C(=O)[C@@H](NC(=O)[C@H](CC/C=C/C(=O)OC)NC(=O)c1ccncc1C(=O)O)C(C)(C)C)C1CCCCC1)C1CCCCC1 [36a/b] ({Isonicotinoyl(3-COOH)}-[X1][Tle][Pro(4-oxo)][Chg][Chg]-NHMe)', 'TG2 (Homo sapiens (Human), UniProt P21980)', 'IC50', 'nM', 168),
  ('COC(=O)/C=C/CC[C@H](NC(=O)c1cc(C(=O)O)cc([N+](=O)[O-])c1)C(=O)N[C@H](C(=O)N1CC(=O)C[C@H]1C(=O)N[C@H](C(=O)N[C@H](C(N)=O)C1CCCCC1)C1CCCCC1)C(C)(C)C [Compound 4] ({Benzoyl(3-COOH,5-NO2)}-[X1][Tle][Pro(4-oxo)][Chg][Chg]-NH2)', 'TG2 (Homo sapiens (Human), UniProt P21980)', 'IC50', 'nM', 14);
